# TARGET ENTITY: T1, extracellular domain of cyno ILT3 (cynoILT3-ECD) (cynomolgus monkey)
# T1 chain: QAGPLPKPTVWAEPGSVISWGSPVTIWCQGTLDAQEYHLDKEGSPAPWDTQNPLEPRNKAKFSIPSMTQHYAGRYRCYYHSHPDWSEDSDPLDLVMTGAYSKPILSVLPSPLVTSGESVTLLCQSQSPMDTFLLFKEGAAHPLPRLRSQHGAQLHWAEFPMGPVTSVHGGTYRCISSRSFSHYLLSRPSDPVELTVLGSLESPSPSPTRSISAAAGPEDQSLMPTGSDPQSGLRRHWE
# PROTOCOL DESCRIPTION: SPR (Biacore), antibody captured via anti-Fc on CM5 chip, soluble ILT3-ECD injected
Kd for assorted binders
Report the value in nM with no unit label.

Hz45G10 A2/A4 (antibody, V domains shown) VH: EVQLVESGGGLVQPGGSLRLSCAASGFTFSDYGMHWVRQAPGKGLEWVAYIFSGSSTIYYADTVKGRFTISRDNAKNSLYLQMNSLRAEDTAVYYCARADGRGAMDYWGQGTTVTVSS VL: DIQMTQSPSSLSASVGDRVTITCRASQDISKFLNWYQQKPGKAPKLLIYYTSRLHSGVPSRFSGSGSGTDFTFTISSLQPEDIATYFCQQGNTLPWTFGGGTKLEIK :: 113

Task: Query (binder): Hz48A6 C2/C2 (antibody, V domains shown) VH: EVQLVESGGGLMQPGGSLRLSCAASGFTFSSYGMSWVRQAPGKGLEWVATISSGGTYTFYPDSVKGRFTISRDNSKNTLYLQMNSLRAEDTAVYYCARRGWLLHYYAMDYWGQGTLVTVSS VL: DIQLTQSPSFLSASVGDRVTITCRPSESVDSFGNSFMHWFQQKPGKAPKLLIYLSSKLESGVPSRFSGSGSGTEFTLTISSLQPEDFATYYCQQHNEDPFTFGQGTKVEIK ; field requested: Kd
Output: 377
